Tested target: human CRTH2 (Homo sapiens, UniProt Q9Y5Y4)
Construct: expressed in transfected cells
Sequence (Q9Y5Y4 whole entry): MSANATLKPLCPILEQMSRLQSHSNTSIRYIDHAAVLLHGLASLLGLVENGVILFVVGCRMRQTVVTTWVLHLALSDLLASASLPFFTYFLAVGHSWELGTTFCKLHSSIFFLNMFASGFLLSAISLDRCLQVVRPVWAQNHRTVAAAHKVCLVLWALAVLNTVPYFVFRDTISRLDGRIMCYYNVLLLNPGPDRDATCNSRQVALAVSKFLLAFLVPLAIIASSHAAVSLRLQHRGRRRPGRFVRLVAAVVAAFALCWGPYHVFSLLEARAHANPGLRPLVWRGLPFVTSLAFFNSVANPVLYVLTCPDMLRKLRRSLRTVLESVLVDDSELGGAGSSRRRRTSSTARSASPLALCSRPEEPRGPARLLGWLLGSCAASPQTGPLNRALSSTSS
Assay protocol: [35S]GTPγS binding assay (SPA) on membranes from CHO-K1 cells stably expressing human CRTH2, stimulated with 60 nM DHK-PGD2
Type: biochemical
Test context: potency class symbols; Table 2; read-out: CRTH2 hGTPγS IC50
pIC50: −log10 of the molar value.
# pIC50 values compiled below

Compound: CN(Cc1ccc(OCC(=O)O)c(-c2cccc(C(F)(F)F)c2)c1)S(=O)(=O)c1ccc(F)c(Cl)c1 [Example 74]
Measured parameter: pIC50
Assay result: > 7.00

So what's the measured pIC50 for this one? CN(Cc1ccc(OCC(=O)O)c(-c2cc(C(F)(F)F)ccc2Cl)c1)S(=O)(=O)c1ccc(F)cc1 [Example 115] 6.00 to 7.00

Now consider Cc1noc(C)c1-c1cc(CN(C)S(=O)(=O)c2ccc(F)cc2)ccc1OCC(=O)O [Example 171] . 5.00 to 6.00

Entry to check: CN(Cc1ccc(OCC(=O)O)c(-c2cccc(C(F)(F)F)c2)c1)S(=O)(=O)c1ccc(F)c(F)c1 [Example 91] > 7.00

* * *

Tested target: human CRTH2 (Homo sapiens, UniProt Q9Y5Y4)
Construct: expressed in transfected cells
Assay protocol: [35S]GTPγS binding assay (SPA) on membranes from CHO-K1 cells stably expressing human CRTH2, stimulated with 60 nM DHK-PGD2
Type: biochemical
Test context: potency class symbols; Table 2; read-out: CRTH2 hGTPγS IC50
Measured parameter: IC50

Example results:
Compound: CN(Cc1ccc(OCC(=O)O)c(-c2cccc(S(C)(=O)=O)c2)c1)S(=O)(=O)c1ccc(F)c(F)c1 [Example 47]
Tested target: human CRTH2 (Homo sapiens, UniProt Q9Y5Y4)
IC50: < 100 nM

Compound: CN(Cc1cc(-c2cc(F)cc(C#N)c2)c(OCC(=O)O)cc1F)S(=O)(=O)c1cccc(Cl)c1 [Example 210]
Tested target: human CRTH2 (Homo sapiens, UniProt Q9Y5Y4)
IC50: < 100 nM

Compound: Cc1ccc(S(=O)(=O)N(C)Cc2ccc(OCC(=O)O)c(-c3cccc(S(C)(=O)=O)c3)c2)cc1 [Example 59]
Tested target: human CRTH2 (Homo sapiens, UniProt Q9Y5Y4)
IC50: < 100 nM

Compound: COc1cccc(S(=O)(=O)N(C)Cc2ccc(OCC(=O)O)c(-c3cccc(C(F)(F)F)c3)c2)c1 [Example 153]
Tested target: human CRTH2 (Homo sapiens, UniProt Q9Y5Y4)
IC50: 1000 to 10000 nM

Compound: CN(Cc1ccc(OCC(=O)O)c(-c2cccc(C#N)c2)c1)S(=O)(=O)c1ccc(F)c(Cl)c1 [Example 62]
Tested target: human CRTH2 (Homo sapiens, UniProt Q9Y5Y4)
IC50: < 100 nM

Compound: CN(Cc1ccc(OCC(=O)O)c(-c2cccc(F)c2)c1)S(=O)(=O)c1ccc(F)cc1 [Example 130]
Tested target: human CRTH2 (Homo sapiens, UniProt Q9Y5Y4)
IC50: 100 to 1000 nM

Please look up its IC50: CCOc1cc(F)cc(-c2cc(CN(C)S(=O)(=O)c3ccc(F)cc3)ccc2OCC(=O)O)c1 [Example 112] 100 to 1000 nM

* * *

Tested target: human CRTH2 (Homo sapiens, UniProt Q9Y5Y4)
Construct: expressed in transfected cells
Assay protocol: [35S]GTPγS binding assay (SPA) on membranes from CHO-K1 cells stably expressing human CRTH2, stimulated with 60 nM DHK-PGD2
Format: biochemical
Test context: potency class symbols; Table 2; read-out: CRTH2 hGTPγS IC50
pIC50: −log10 of the molar value.
Measured parameter: pIC50

Worked cases, pIC50 given:
Smiles data: CCS(=O)(=O)c1cccc(-c2cc(CN(C)S(=O)(=O)c3ccc(F)cc3)ccc2OCC(=O)O)c1
Tested target: human CRTH2 (Homo sapiens, UniProt Q9Y5Y4)
pIC50: > 7.00
//
Smiles data: CN(Cc1ccc(OCC(=O)O)c(-c2cc(F)cc(F)c2)c1)S(=O)(=O)c1cccc(Cl)c1
Tested target: human CRTH2 (Homo sapiens, UniProt Q9Y5Y4)
pIC50: > 7.00
//
Smiles data: CN(Cc1ccc(OCC(=O)O)c(-c2cc(Cl)cc(C#N)c2)c1)S(=O)(=O)c1ccc(F)cc1
Tested target: human CRTH2 (Homo sapiens, UniProt Q9Y5Y4)
pIC50: > 7.00

Recorded pIC50 of CN(Cc1ccc(OCC(=O)O)c(-c2cccc(C(F)(F)F)c2)c1)S(=O)(=O)c1ccc(S(C)(=O)=O)cc1 , please. 6.00 to 7.00

Record: CN(Cc1ccc(OCC(=O)O)c(-c2cccc(O)c2)c1)S(=O)(=O)c1ccc(F)cc1 6.00 to 7.00

Now consider CN(Cc1ccc(OCC(=O)O)c(-c2cccc(C#N)c2)c1)S(=O)(=O)c1cccc(Cl)c1 . > 7.00

// same read-out, input: CN(Cc1ccc(OCC(=O)O)c(-c2cccc(C(F)(F)F)c2)c1)S(=O)(=O)c1ccc(Cl)cc1 6.00 to 7.00

Another compound to look at: CN(Cc1ccc(OCC(=O)O)c(-c2cccc(F)c2F)c1)S(=O)(=O)c1ccc(F)cc1 6.00 to 7.00

Can you check COc1ccc(S(=O)(=O)N(C)Cc2cc(-c3cc(F)cc(C#N)c3)c(OCC(=O)O)cc2F)cc1F next? > 7.00

Also COc1cc(F)cc(-c2cc(CN(C)S(=O)(=O)c3ccc(OC)c(F)c3)ccc2OCC(=O)O)c1 , if possible. > 7.00

Then this compound: CN(Cc1ccc(OCC(=O)O)c(-c2cccc(C(F)(F)F)c2)c1)S(=O)(=O)c1cccc(Cl)c1 6.00 to 7.00

And COc1ccc(S(=O)(=O)NCc2ccc(OCC(=O)O)c(-c3cc(F)cc(C#N)c3)c2)cc1F ? > 7.00

Entry to check: CN(Cc1ccc(OCC(=O)O)c(-c2ccc(C#N)s2)c1)S(=O)(=O)c1ccc(F)cc1 > 7.00

Next compound up: CN(Cc1ccc(OCC(=O)O)c(-c2cccc(C(F)(F)F)c2)c1)S(=O)(=O)c1ccc2ccccc2c1 6.00 to 7.00

Next compound up: COC(=O)c1cccc(-c2cc(CN(C)S(=O)(=O)c3ccc(F)cc3)ccc2OCC(=O)O)c1 6.00 to 7.00
